- tested on: Heat shock protein HSP 90-beta (Homo sapiens)
- Sequence (P08238 whole entry): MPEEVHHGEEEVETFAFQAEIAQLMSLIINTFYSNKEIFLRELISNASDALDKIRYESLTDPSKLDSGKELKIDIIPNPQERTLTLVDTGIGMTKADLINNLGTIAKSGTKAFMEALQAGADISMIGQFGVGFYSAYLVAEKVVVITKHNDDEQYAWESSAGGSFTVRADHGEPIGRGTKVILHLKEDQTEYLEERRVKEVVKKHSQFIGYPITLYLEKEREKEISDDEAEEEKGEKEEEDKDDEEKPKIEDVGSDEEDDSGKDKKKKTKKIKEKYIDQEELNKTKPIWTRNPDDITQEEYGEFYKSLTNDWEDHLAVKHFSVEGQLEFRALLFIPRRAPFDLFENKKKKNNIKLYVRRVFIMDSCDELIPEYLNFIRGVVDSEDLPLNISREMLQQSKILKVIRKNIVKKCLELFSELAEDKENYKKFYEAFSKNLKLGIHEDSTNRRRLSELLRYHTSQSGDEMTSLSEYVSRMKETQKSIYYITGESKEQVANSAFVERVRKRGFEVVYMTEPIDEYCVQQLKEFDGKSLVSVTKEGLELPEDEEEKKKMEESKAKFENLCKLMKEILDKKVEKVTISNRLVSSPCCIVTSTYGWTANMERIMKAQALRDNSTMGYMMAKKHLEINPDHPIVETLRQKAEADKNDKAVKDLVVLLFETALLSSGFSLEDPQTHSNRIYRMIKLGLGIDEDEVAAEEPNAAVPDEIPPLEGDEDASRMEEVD
- assay details: Her-2 Degradation Assay
- experimental context: pH 7.2; 37 °C
Threshold 300 nM: EC50 strictly smaller gives satisfied, otherwise not satisfied.

# count of solved cases: 5
* CCCCn1c(Sc2nc3cccc(OC)c3s2)nc2c(N)ncnc21 | satisfied
* CCCCn1c(Sc2nc3ccc(Cl)c(Cl)c3s2)nc2c(N)ncnc21 | not satisfied
* CCCn1c(Sc2nc3cccc(Cl)c3s2)nc2c(N)ncnc21 | satisfied
* CC(=O)OCCCCn1c(Sc2nc3cccc(Cl)c3s2)nc2c(N)ncnc21 | satisfied
* Nc1ncnc2c1nc(Sc1nc3cccc(Cl)c3s1)n2CCN1CCOCC1 | satisfied

Inquiry: Lab note: EC50 threshold 300 nM. Does this compound come in strictly under it? CCCCCn1c(Sc2nc3cccc(Cl)c3s2)nc2c(N)ncnc21
Reply text: not satisfied

Inquiry: Does the reported EC50 of Nc1ncnc2c1nc(Sc1nc3cccc(Cl)c3s1)n2CCCO stay below 300 nM?
Reply text: satisfied

Inquiry: Find out if reported EC50 for CCCCn1c(Sc2nc3cccc(Br)c3s2)nc2c(N)ncnc21 is less than 300 nM
Reply text: not satisfied
